The measurements presented in this section are drawn from ChEMBL document CHEMBL1136190.

# Tested on: Enterococcus faecalis
# ASSAY_NOTES: Minimum inhibitory concentration against Enterococcus faecalis (VanA, BM4166)
# Format: functional
Overview of recorded MIC for various compounds

Take a look at these entries with their results.
{"COMPOUND": "CN[C@H](CC(C)C)C(=O)NC1C(=O)NC(CC#N)C(=O)NC2C(=O)NC3C(=O)NC(C(=O)NC(C(=O)OC)c4cc(OC)cc(OC)c4-c4cc3ccc4OC)C(O)c3ccc(c(Cl)c3)Oc3cc2cc(c3OC)Oc2ccc(cc2Cl)[C@H]1O (stereo partly drawn)", "SUBJECT_OF_TEST": "Enterococcus faecalis", "MIC": "50 µg/mL"}
{"COMPOUND": "CN[C@H](CC(C)C)C(=O)N[C@H]1C(=O)N[C@@H](CC(N)=O)C(=O)N[C@H]2C(=O)N[C@H]3C(=O)N[C@H](C(=O)N[C@H](C(=O)O)c4cc(O)cc(O)c4-c4cc3ccc4O)[C@H](O)c3ccc(c(Cl)c3)Oc3cc2cc(c3O[C@@H]2O[C@H](CO)[C@@H](O)[C@H](O)[C@H]2O[C@H]2C[C@](C)(N)[C@H](O)[C@H](C)O2)Oc2ccc(cc2Cl)[C@H]1O [VANCOMYCIN]", "SUBJECT_OF_TEST": "Enterococcus faecalis", "MIC": "> 100 µg/mL"}

Pending compound:
Query :: Dear colleague, I am looking for the recorded MIC of the following compound: CN[C@H](CC(C)C)C(=O)N[C@H]1C(=O)N[C@@H](CC(N)=O)C(=O)N[C@H]2C(=O)N[C@H]3C(=O)N[C@H](C(=O)N[C@H](C(=O)O)c4cc(O)cc(O)c4-c4cc3ccc4O)[C@H](O)c3ccc(c(Cl)c3)Oc3cc2cc(c3O)Oc2ccc(cc2Cl)[C@H]1O [VANCOMYCIN AGLYCON]
Result :: > 100 µg/mL
